- Species on record: Cavia porcellus
- testProtocol: Inhibitory activity against sulfidopeptide leukotriene release in guinea pig
- Format: functional
pIC50: −log10 of the molar value.
readoutLabel: pIC50

[in] Which pIC50 is reported for this compound? "C=CCc1c(OC(C)=O)c2cccnc2n(-c2cccc(Cl)c2)c1=O"
[out] ~6.00

----------
- Species on record: Cavia porcellus
- testProtocol: Inhibitory activity against SRS-A release in guinea pig; 0.05-14 uM
- Format: functional
readoutLabel: pIC50
# pIC50: negative log10 of molar concentration; output just the value

[in] Which pIC50 is reported for this molecule? "C=CCc1c(O)c2cccnc2n(-c2ccccc2OC)c1=O"
[out] 6.01
